The reported measurements were obtained from the supplement of paper PMC12764529.

# procedureDetails: folding stability dG unfold (combined trypsin and chymotrypsin); higher = more stable
observationType: folding stability dG unfold (kcal/mol)
The response must be a number in kcal/mol with no trailing unit.

Give the value of folding stability dG unfold reported for the following: SAGGSPPYVNISMRRTPNGNMPLKVEIYDKDNEPVAEQEIEIPDMEPGEQWNFTIPIEPNMKLRIESAGGSA [r2_288_TrROS]
-0.132

Annotate the sequence SAGGSAGGSMTFRVEVFNKKTGKVETIEVEGSLDELKALAPPGALVKIEVDGKTITIPAEELKSAGGSAGGS [r20_36_TrROS_Hall] with its measured folding stability dG unfold.
1.74

Quote folding stability dG unfold reported for SKKVEIKIKVERNEDGYLTVTIEIRAETEEELLEAAKELAKALFPEDVEIRVEKLPDGTVKITIVVKLPPSA [r9_646_TrROS_Hall] please.
2.29

Supply recorded folding stability dG unfold for SAGMYTVLETRTVNGRTVTLIDVPERPLTVTVTVDRDPSGRRTVTVNVEGEVKEILEKANPDIDELTLESAG [r5_933_JUSTAS] here.
-0.15

Identify folding stability dG unfold associated with the sequence SAGGMILIERDGRERVLEKAREAVEAEAARARAGDVEDAVLLVDLRVVDPVTGEWEELPVLARVPPASAGGS [r8_163_TrMRF]
-0.0473

Tell me folding stability dG unfold reported for SAGMPVLVSAPIPLARGPDGVARIDPALVRALAEAAGFTGRVESVEVRPLPDSYLVAVRLPDSVLLGESAGG [r19_398_TrMRF]
-0.31

Input SAGGSAGGSAGGSMETVEVTEVSFDPSKGTRFVKTTVTRKDEKGNWVEKEEWITEPVLGSAGGSAGGSAGGS [r4_85_JUSTAS] , output reported folding stability dG unfold.
-0.0805

====

I'd appreciate it if you could supply folding stability dG unfold values for the items below.
# procedureDetails: folding stability dG unfold from trypsin proteolysis; higher = more stable
Report as a plain number; the unit kcal/mol is understood.

Find the measured folding stability dG unfold of GEFVSVESVERLPDGTLVVKIKYKPPSPDTPVTVTVSHPDSSVTFTMDPTSSTITVTVPPSVSDVSVTVVGS [r1_428_JUSTAS] and report it.
2.6

Write down folding stability dG unfold measured for item SAGGGSISISLPAEELKALSPEDVIEVTAPDGTKIKAKPVKKGDTYPVTAEDPNNPKNATEMGTATLPSAGG [r13_745_JUSTAS]
0.0233

Provide one value: measured folding stability dG unfold of SAGGMTPEEKEEIAKKFAEELLKKLKEGDPNVKVETEVDPEKGVVKIKVINLNTKKPKTIEIPFSELASAGG [r13_354_TrMRF]
1.76

Look up folding stability dG unfold of SAGGMKIEIVEIEREGNTITIKAKITLPDGTVIEITAKAEFVDGELKLEIKVEVRKLPPPPPPPPEESAGGS [r8_458_TrROS_Hall] and report it.
2.87

Let me know recorded folding stability dG unfold for SAGGMTLEDLAGQSIEEALDLIEENGWDEVTITYPGGSKIEIKYNKDGPIEVEWENPDGNKQTFTIPSAGGS [r8_51_TrROS] , thanks.
0.644

Provide one value: measured folding stability dG unfold of SAGELKITIAVFRPVEKDENGKEVKVELVEVKTITISKEDLTEEEILKLAEELKKKFPNTVILVTIEPSAGG [r19_369_TrROS_Hall]
2.59

Return reported folding stability dG unfold. Input sequence: SAGGVVTFLPGNLIKTTYFDPEKGTRTETLYYVPPDGTTTKLKTTVTPIPPTPLERPFFFGPDDVPVLSAGG [r13_646_JUSTAS]
0.517

Tell me measured folding stability dG unfold for SAGGEIERDPNGWIRMTYTLPGFGYKIEITFRVPDNGMMQIEDIDIEPIPPVPPPPPPKYDPNGEWKYSAGG [r13_646_TrROS] please.
1.64

Entry SAGGSPKPVPVTITSVTSTSVEVYLPSTGATFTFNLNEEKTLTLPDGSKIYFTFNSDGSVTATVIEYGSAGG [r13_352_TrMRF] needs its folding stability dG unfold filled in; supply it.
5.03
